# assaySummary: Stability in SGF without pepsin
# Assay type: physicochemical
# runParameters: Table 8, if calculated T½ < 0, T½ reported as 9999 min
Exercise: state measured half-life for each of the molecules provided.
One number for each entry, in h.

As a guide, the following entries are already answered.
molecule="CC[C@H]1OC(=O)[C@H](C)[C@@H](O[C@H]2C[C@@](C)(OC)[C@@H](O)[C@H](C)O2)[C@H](C)[C@@H](O[C@@H]2O[C@H](C)C[C@H](N(C)C)[C@H]2O)[C@](C)(O)C[C@@H](C)C(=O)[C@H](C)[C@@H](O)[C@]1(C)O [Erythromycin, reference compound]" experimentalreadout=half-life measurementunit=h reportedvalue=0.658
molecule="CC(OC(=O)C(C)C)OC(=O)n1cc(CCN(C)C)c2ccccc21 (stereo not drawn)" experimentalreadout=half-life measurementunit=h reportedvalue=117

Query: For CC(OC(=O)n1cc(CCN(C)C)c2ccccc21)OC(=O)C(C)(C)C (racemic) , what is its reported half-life?
Response: 131

###

# assaySummary: Stability in PBS pH 6.5
# runParameters: Table 8, 120 min
experimentalReadout: Remaining Percentage (%)
Give bare numbers, in %.

Please review the following examples before continuing.
compound="O=C(O)CCCc1ccc(N(CCCl)CCCl)cc1 [Chlorambucil, reference compound]" reportedvalue=16.83
compound="CC(OC(=O)C(C)C)OC(=O)n1cc(CCN(C)C)c2ccccc21 (stereo not shown)" reportedvalue=92.63
compound=CCCCC(=O)Oc1cccc2ccn(CCN(C)C)c12 reportedvalue=100.03

Query: Suppose we examine the compound CC(OC(=O)n1cc(CCN(C)C)c2ccccc21)OC(=O)C(C)(C)C (racemic) ; what Remaining Percentage value has been reported?
Response: 89.44

###

# assaySummary: Stability in SGF with pepsin
# Assay type: physicochemical
# runParameters: Table 8, 240 min
experimentalReadout: Remaining Percentage (%)
Answers are plain numbers, in %.

compound="CCCCC(=O)Oc1cccc2ccn(CCN(C)C)c12 [VLS-03-1]" measurementunit=% reportedvalue=96.47

State recorded Remaining Percentage for all listed compounds.
1. CC(OC(=O)C(C)C)OC(=O)n1cc(CCN(C)C)c2ccccc21 (stereo not shown) [VLS-03-10]
2. CC[C@H]1OC(=O)[C@H](C)[C@@H](O[C@H]2C[C@@](C)(OC)[C@@H](O)[C@H](C)O2)[C@H](C)[C@@H](O[C@@H]2O[C@H](C)C[C@H](N(C)C)[C@H]2O)[C@](C)(O)C[C@@H](C)C(=O)[C@H](C)[C@@H](O)[C@]1(C)O [Erythromycin, reference compound]
3. CC(OC(=O)n1cc(CCN(C)C)c2ccccc21)OC(=O)C(C)(C)C (racemic) [VLS-03-15]

Response:
[89.32, 2.14, 102.22]

###

# assaySummary: Stability in Mouse Plasma
# Type: in vitro ADME
# runParameters: Table 9, 60 min
I'd appreciate it if you could supply Remaining Percentage values for the items below.
Give bare numbers, in %.

These solved cases illustrate the format of a correct answer.
compound="CC(OC(=O)n1cc(CCN(C)C)c2ccccc21)OC(=O)C(C)(C)C (racemic)" experimentalreadout="Remaining Percentage" reportedvalue=0.00
compound=CCCCC(=O)Oc1cccc2ccn(CCN(C)C)c12 experimentalreadout="Remaining Percentage" reportedvalue=0.00
compound="CC(C)[N+](C)(CCOC(=O)C1c2ccccc2Oc2ccccc21)C(C)C [Propantheline, reference compound]" experimentalreadout="Remaining Percentage" reportedvalue=29.46

Then this compound:
Query: What does the record list as Remaining Percentage for CC(OC(=O)C(C)C)OC(=O)n1cc(CCN(C)C)c2ccccc21 (stereo not shown) ?
Response: 0.00

###

# assaySummary: Stability in SGF with pepsin
# Assay type: physicochemical
# runParameters: Table 8, 60 min
Kindly state Remaining Percentage for each of the entries shown.
Answers are plain numbers, in %.

Would you please look over these solved cases?
compound="CCCCC(=O)Oc1cccc2ccn(CCN(C)C)c12 [VLS-03-1]" reportedvalue=90.49
compound="CC(OC(=O)n1cc(CCN(C)C)c2ccccc21)OC(=O)C(C)(C)C (racemic) [VLS-03-15]" reportedvalue=107.53
compound="CC(OC(=O)C(C)C)OC(=O)n1cc(CCN(C)C)c2ccccc21 (stereo not shown) [VLS-03-10]" reportedvalue=93.09

Query: // query Remaining Percentage value for entry CC[C@H]1OC(=O)[C@H](C)[C@@H](O[C@H]2C[C@@](C)(OC)[C@@H](O)[C@H](C)O2)[C@H](C)[C@@H](O[C@@H]2O[C@H](C)C[C@H](N(C)C)[C@H]2O)[C@](C)(O)C[C@@H](C)C(=O)[C@H](C)[C@@H](O)[C@]1(C)O [Erythromycin, reference compound]
Response: 37.33

###

# assaySummary: Stability in Mouse Plasma
# Assay type: in vitro ADME
# runParameters: mouse, plasma, Table 9, read-out: T½
experimentalReadout: half-life (min)
Give bare numbers, in min.

Query: # query: half-life of entry CC(C)[N+](C)(CCOC(=O)C1c2ccccc2Oc2ccccc21)C(C)C [Propantheline, reference compound]
Response: 32.6

###

# assaySummary: Stability in SGF without pepsin
# Format: physicochemical
# runParameters: Table 8, 30 min
experimentalReadout: Remaining Percentage (%)
One number for each entry, in %.

Here is how some molecules turned out for Remaining Percentage.
molecule=CCCCC(=O)Oc1cccc2ccn(CCN(C)C)c12 measurementunit=% reportedvalue=106.25
molecule="CC(OC(=O)n1cc(CCN(C)C)c2ccccc21)OC(=O)C(C)(C)C (racemic)" measurementunit=% reportedvalue=101.12
molecule="CC[C@H]1OC(=O)[C@H](C)[C@@H](O[C@H]2C[C@@](C)(OC)[C@@H](O)[C@H](C)O2)[C@H](C)[C@@H](O[C@@H]2O[C@H](C)C[C@H](N(C)C)[C@H]2O)[C@](C)(O)C[C@@H](C)C(=O)[C@H](C)[C@@H](O)[C@]1(C)O [Erythromycin, reference compound]" measurementunit=% reportedvalue=52.67

Query molecule follows.
Query: I have this molecule here, CC(OC(=O)C(C)C)OC(=O)n1cc(CCN(C)C)c2ccccc21 (stereo not shown) , and I need its recorded Remaining Percentage.
Response: 99.86

###

# assaySummary: Stability in Mouse Plasma
# Format: in vitro ADME
# runParameters: Table 9, 120 min
experimentalReadout: Remaining Percentage (%)
One number for each entry, in %.

Example entries begin here.
compound="CC(OC(=O)n1cc(CCN(C)C)c2ccccc21)OC(=O)C(C)(C)C (racemic) [VLS-03-15]" experimentalreadout="Remaining Percentage" reportedvalue=0.00
compound="CC(OC(=O)C(C)C)OC(=O)n1cc(CCN(C)C)c2ccccc21 (stereo not shown) [VLS-03-10]" experimentalreadout="Remaining Percentage" reportedvalue=0.00
compound="CCCCC(=O)Oc1cccc2ccn(CCN(C)C)c12 [VLS-03-1]" experimentalreadout="Remaining Percentage" reportedvalue=0.00

Query: Any idea what its Remaining Percentage is? The compound is CC(C)[N+](C)(CCOC(=O)C1c2ccccc2Oc2ccccc21)C(C)C [Propantheline, reference compound]
Response: 8.74

###

# assaySummary: Stability in PBS pH 6.5
# runParameters: Table 8, 240 min
experimentalReadout: Remaining Percentage (%)
Answers are plain numbers, in %.

molecule=CCCCC(=O)Oc1cccc2ccn(CCN(C)C)c12 reportedvalue=101.35
molecule="O=C(O)CCCc1ccc(N(CCCl)CCCl)cc1 [Chlorambucil, reference compound]" reportedvalue=2.99

I have 2 molecules here; please give me Remaining Percentage for each one.
1. CC(OC(=O)n1cc(CCN(C)C)c2ccccc21)OC(=O)C(C)(C)C (racemic)
2. CC(OC(=O)C(C)C)OC(=O)n1cc(CCN(C)C)c2ccccc21 (stereo not shown)

Response:
1. 82.54
2. 97.66

###

# assaySummary: Stability in Mouse Plasma
# Type: in vitro ADME
# runParameters: Table 9, 0 min
Assign Remaining Percentage to each entry below.
Answers are plain numbers, in %.

compound="CC(C)[N+](C)(CCOC(=O)C1c2ccccc2Oc2ccccc21)C(C)C [Propantheline, reference compound]" reportedvalue=100.00
compound="CC(OC(=O)C(C)C)OC(=O)n1cc(CCN(C)C)c2ccccc21 (stereo not shown) [VLS-03-10]" reportedvalue=100.00
compound="CCCCC(=O)Oc1cccc2ccn(CCN(C)C)c12 [VLS-03-1]" reportedvalue=100.00

As a next step, examine the compound that follows.
Query: # get_value(readout='Remaining Percentage', item= CC(OC(=O)n1cc(CCN(C)C)c2ccccc21)OC(=O)C(C)(C)C (racemic) [VLS-03-15] )
Response: 100.00

###

So I've got a bunch of compounds here, and I need their Remaining Percentage values.
# assaySummary: Stability in SGF with pepsin
# Assay type: physicochemical
# runParameters: Table 8, 30 min
One number for each entry, in %.

Completed entries (count: 3):
compound="CC(OC(=O)n1cc(CCN(C)C)c2ccccc21)OC(=O)C(C)(C)C (racemic)" experimentalreadout="Remaining Percentage" reportedvalue=97.29
compound=CCCCC(=O)Oc1cccc2ccn(CCN(C)C)c12 experimentalreadout="Remaining Percentage" reportedvalue=101.74
compound="CC(OC(=O)C(C)C)OC(=O)n1cc(CCN(C)C)c2ccccc21 (stereo not shown)" experimentalreadout="Remaining Percentage" reportedvalue=96.82

Now consider the entry below.
Query: Item under review: CC[C@H]1OC(=O)[C@H](C)[C@@H](O[C@H]2C[C@@](C)(OC)[C@@H](O)[C@H](C)O2)[C@H](C)[C@@H](O[C@@H]2O[C@H](C)C[C@H](N(C)C)[C@H]2O)[C@](C)(O)C[C@@H](C)C(=O)[C@H](C)[C@@H](O)[C@]1(C)O [Erythromycin, reference compound] . Reported Remaining Percentage?
Response: 56.55
